// values below are reported hepatocyte CLint at 1 μM
Test: Hepatic metabolic stability (hepatocyte clearance) assay, substrate depletion
Assay type: in vitro ADME, human
Conditions: both sexes, human, hepatocytes, hepatocyte clearance, Conc 1000 nM, not background adjusted; read-out: Unadj Clint
Respond with the bare value in µL/min/1e6 cells.

compound	hepatocyte CLint at 1 μM, µL/min/1e6 cells
NC(=O)C(F)(F)C(F)(F)C(F)(F)C(F)(F)F [Nonafluoropentanamide]	34.9

// lookup hepatocyte CLint at 1 μM for OCCC(F)(F)C(F)(F)C(F)(F)C(F)(F)F [4:2 Fluorotelomer alcohol]
45.6

// lookup hepatocyte CLint at 1 μM for OCC(F)(F)C(F)(F)C(F)(F)C(F)(F)C(F)(F)C(F)(F)CO [1H,1H,8H,8H-Perfluorooctane-1,8-diol]
22.8

// lookup hepatocyte CLint at 1 μM for OCC(F)(F)C(F)(F)C(F)(F)C(F)(F)C(F)(F)C(F)(F)C(F)(F)C(F)(F)CO [1H,1H,10H,10H-Perfluorodecane-1,10-diol]
56.6

// lookup hepatocyte CLint at 1 μM for NC(=O)C(F)(F)C(F)(F)C(F)(F)F [Heptafluorobutyramide]
19.9

// lookup hepatocyte CLint at 1 μM for `Cc1ccc(S(=O)(=O)OCC(F)(F)C(F)(F)C(F)(F)C(F)(F)C(F)(F)C(F)F)cc1`
31

---

Test system: human plasma
Experiment: Chemical stability in plasma over the UC assay time course (T5hr/T1hr)
Conditions: mean T5hr/T1hr ratio over all replicates and runs, plasma
Returns one of Condition met or Condition not met; Condition met when Mean Stability is >= 0.9.

molecule	qualitative.label
FC(F)(I)C(F)(F)C(F)(F)C(F)(F)C(F)(F)C(F)(F)I	Condition not met

In plain terms: is recorded Mean Stability at least 0.9 for `NC(O)(C(F)(F)F)C(F)(F)F` ?
Condition not met

In plain terms: is recorded Mean Stability at least 0.9 for `FC(F)(F)COC(OCC(F)(F)F)OCC(F)(F)F` ?
Condition not met

In plain terms: is recorded Mean Stability at least 0.9 for OCC(F)(F)C(F)(F)C(F)(F)C(F)(F)C(F)(F)C(F)(F)C(F)(F)C(F)(F)CO [1H,1H,10H,10H-Perfluorodecane-1,10-diol] ?
Condition met

In plain terms: is recorded Mean Stability at least 0.9 for `OCC(F)(F)C(F)(F)C(F)(F)C(F)F` ?
Condition not met

---

Assay: in vitro
Conditions: both, human, plasma, Mean Fu, mean fraction unbound over all replicates and runs, UC assay, human plasma
measurement.label: fraction unbound
Lab note: jot the number down without any unit.

molecule	fraction unbound
O=C(CC(=O)C(F)(F)C(F)(F)C(F)(F)F)c1cccs1 [(Perfluorobutyryl)-2-thenoylmethane]	0.007
OCCCC(F)(F)C(F)(F)C(F)(F)F [3-(Perfluoropropyl)propanol]	0.203
FC(F)(I)C(F)(F)C(F)(F)C(F)(F)C(F)(F)C(F)(F)I [1,6-Diiodoperfluorohexane]	0.361

// lookup fraction unbound for OCCCC(F)(F)C(F)(F)C(F)(F)C(F)(F)C(F)(F)C(F)(F)C(F)(F)C(F)(F)F [3-(Perfluorooctyl)propanol]
0.036

// lookup fraction unbound for OCC(F)(F)C(F)(F)C(F)(F)C(F)(F)C(F)(F)C(F)(F)C(F)(F)C(F)(F)CO [1H,1H,10H,10H-Perfluorodecane-1,10-diol]
0.00469
